# tgt: NEP (neutral endopeptidase) (Homo sapiens)
# Construct: purchased R&D Systems, Minneapolis, Minn; 1182-ZN
# Sequence (P08473 52-750 limits assumed): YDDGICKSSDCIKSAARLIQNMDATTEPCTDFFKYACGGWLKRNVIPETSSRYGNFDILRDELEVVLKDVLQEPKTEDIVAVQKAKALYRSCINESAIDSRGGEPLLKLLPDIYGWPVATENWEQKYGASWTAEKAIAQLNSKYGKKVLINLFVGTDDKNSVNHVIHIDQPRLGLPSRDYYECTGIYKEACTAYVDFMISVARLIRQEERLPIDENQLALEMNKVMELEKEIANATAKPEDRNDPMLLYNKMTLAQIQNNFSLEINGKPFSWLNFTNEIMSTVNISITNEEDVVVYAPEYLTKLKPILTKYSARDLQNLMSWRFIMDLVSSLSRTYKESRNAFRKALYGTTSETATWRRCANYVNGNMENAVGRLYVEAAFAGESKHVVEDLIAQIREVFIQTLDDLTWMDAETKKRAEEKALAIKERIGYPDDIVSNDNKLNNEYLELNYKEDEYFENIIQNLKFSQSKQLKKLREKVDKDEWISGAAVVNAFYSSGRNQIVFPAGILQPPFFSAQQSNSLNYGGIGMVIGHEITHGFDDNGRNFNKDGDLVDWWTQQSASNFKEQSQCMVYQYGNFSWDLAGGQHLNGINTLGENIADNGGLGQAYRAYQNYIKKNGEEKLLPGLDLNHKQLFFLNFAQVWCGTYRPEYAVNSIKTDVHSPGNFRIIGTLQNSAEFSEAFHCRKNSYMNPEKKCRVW
# assay_notes: hNEP resistance assay (digestion by neutral endopeptidase)
# Type: in vitro ADME
# setup_conditions: human, isolated enzyme neprilysin, pH 7.4
Bridge positions count the residues as written; N and C are the ends. Square brackets hold non-standard residues; d marks the D form. Peptide text beside a SMILES is read from it. * marks the point of attachment. X1 = N=C(N)NCCC[C@H]1C(=O)N[C@@H](C(N)=O)CN1*; Heptanoyl = CCCCCCC(=O)*; Nle = CCCC[C@H](N)C(=O)O
reported_property: remaining at 1 h, 50 µM (%)
Field: numeric (%). Do not append units.

**Q:** Item under review: CCCCCCC(=O)N[C@H]1CSSC[C@@H](C(=O)N[C@@H](Cc2ccc(O)cc2)C(=O)N2C[C@H](C(N)=O)NC(=O)[C@@H]2CCCNC(=N)N)NC(=O)[C@H](CO)NC(=O)[C@H]([C@@H](C)CC)NC(=O)[C@H](CCCNC(=N)N)NC(=O)[C@H](CC(=O)O)NC(=O)[C@H](CCCC)NC(=O)[C@H](CCCNC(=N)N)NC(=O)CNC(=O)CNC(=O)[C@H](Cc2ccccc2)NC(=O)[C@H](Cc2c[nH]cn2)NC1=O [1-63] (Heptanoyl-CHFGGR[Nle]DRISCY-X1; disulfide 1-12) . Reported remaining at 1 h, 50 µM?
**A:** 67
